EXPERIMENTAL TARGET: Prothrombin (Homo sapiens)
METHOD NOTES: Binding affinity determined against human alpha thrombin
pKi: −log10 of the molar value.
Decision: pKi >= 8 yields satisfied, all other cases yield not satisfied.

Would you please look over these solved cases?
# MOLECULE, CATEGORY LABEL
data = [
    ("CN[C@H](Cc1ccccc1)C(=O)N1CCC[C@H]1C(=O)N[C@@H](C[C@@H]1CCCN(C(=N)N)C1)C(=O)c1nc2ccccc2s1", "satisfied"),
    ("CN[C@@H](C(=O)N1CCC[C@H]1C(=O)NC(CCCN=C(N)N)C(=O)c1nc2ccccc2s1)c1ccccc1 (some centres not stated)", "satisfied"),
    ("CN[C@H](Cc1ccccc1)C(=O)N1CCC[C@H]1C(=O)N[C@@H](CCCCN)C(=O)c1nc2ccccc2s1", "not satisfied"),
    ("CN[C@H](Cc1ccccc1)C(=O)N1CCC[C@H]1C(=O)NC(CCCN=C(N)N)C(=O)c1nc2c(s1)CCCC2 (some centres not stated)", "satisfied"),
]

Identify whether the reported pKi of the following molecule is 8 or greater: `CN[C@H](Cc1ccccc1)C(=O)N1CCC[C@H]1C(=O)N[C@H](C(=O)c1nc2ccccc2s1)[C@H]1CC[C@H](CN)CC1`
not satisfied
